- Assay Overview: logP by HPLC on reversed-phase column (EEC Directive 79/831 Annex V.A8)
- Format: physicochemical
- Recorded Conditions: HPLC, C18, 40° C., 0.1% aqueous formic acid and acetonitrile
Below: a set of entries, each annotated with reported log P.
Recorded Endpoint: log P

[[record]]
molecule = "CCN(C)C=Nc1cc(C)c(OCc2ccc(C(F)(F)F)cc2)cc1C [Compound 14]"
reading = 2.28

[[record]]
molecule = "Cc1cc(OCc2ccc(C(F)(F)F)cc2)c(C)cc1N=CN1CCCCC1 [Compound 109]"
reading = 2.33

[[record]]
molecule = "CCN(C)C=Nc1cc(C)c(OCc2ccc(F)c(F)c2)cc1C [Compound 15]"
reading = 2.02

[[record]]
molecule = "CCN(C)C=Nc1cc(C)c(OCc2cccc(C(=O)OC(C)(C)C)c2)cc1C [Compound 54]"
reading = 2.42

[[record]]
molecule = "CCN(C)C=Nc1cc(C)c(OCc2cccc(C)c2)cc1C [Compound 57]"
reading = 2.11

[[record]]
molecule = "CCN(C)C=Nc1cc(C)c(OCc2ccc(Cl)c(Cl)c2)cc1C [Compound 13]"
reading = 2.38

[[record]]
molecule = "Cc1cc(OCc2cccc(Cl)c2)c(C)cc1N=CN1CCCCC1 [Compound 94]"
reading = 2.21

[[record]]
molecule = "CCN(C)C=Nc1cc(C)c(OCc2cccc(OC(F)(F)F)c2)cc1C [Compound 17]"
reading = 2.33

[[record]]
molecule = "CCN(C)C=Nc1cc(C)c(OC(C)c2ccc(Cl)cc2)cc1C (stereo not shown) [Compound 31]"
reading = 2.26

[[record]]
molecule = "COc1cc(Cl)c(COc2cc(C)c(N=CN3CCCCC3)cc2C)cc1OC [Compound 102]"
reading = 2.09

[[record]]
molecule = "CCN(C)C=Nc1cc(C)c(OCc2cccc(C#N)c2)cc1C [Compound 74]"
reading = 1.83

[[record]]
molecule = "CCN(C)C=Nc1cc(C)c(OCc2ccc(OC)cc2)cc1C [Compound 78]"
reading = 1.92

[[record]]
molecule = "CCN(C)C=Nc1cc(C)c(OCc2c(F)cccc2Cl)cc1C [Compound 61]"
reading = 2.09

[[record]]
molecule = "CCN(C)C=Nc1cc(C)c(OCc2ccc(C)cc2)cc1C [Compound 32]"
reading = 2.1

[[record]]
molecule = "CCN(C)C=Nc1cc(C)c(OCc2cccc(Br)c2)cc1C [Compound 65]"
reading = 2.18

[[record]]
molecule = "Cc1cc(OCc2cccc(SC(F)(F)F)c2)c(C)cc1N=CN1CCCCC1 [Compound 114]"
reading = 2.48

[[record]]
molecule = "CCN(C)C=Nc1cc(C)c(CCc2ccc(OC)cc2)cc1C [Compound 39]"
reading = 2.04

[[record]]
molecule = "Cc1cc(OCc2ccc(Cl)cc2)c(C)cc1N=CN1CCCCC1 [Compound 105]"
reading = 2.26

[[record]]
molecule = "CCN(C)C=Nc1cc(C)c(OCc2ccc(OCc3ccccc3)cc2)cc1C [Compound 79]"
reading = 2.51


----------
- Assay Overview: logP by HPLC on reversed-phase column (EEC Directive 79/831 Annex V.A8)
- Assay type: physicochemical
- Recorded Conditions: reversed-phase HPLC column (C18), pH 2.3; read-out: log P (pH 2.3)
Below: a set of entries, each annotated with reported chromatographic logP.
Recorded Endpoint: chromatographic logP

[[record]]
compound = "CCN(C)/C=N/c1cc(C)c(I)cc1C [Intermediate (V-1)]"
reading = 1.21

[[record]]
compound = "CCN(C)/C=N/c1cc(C)c(/C=C/c2ccccc2F)cc1C (racemic) [Intermediate (VII-1)]"
reading = 2.11

[[record]]
compound = "CCN(C)/C=N/c1cc(C)c(OCc2cccc(C(F)(F)F)c2)cc1C"
reading = 2.24

[[record]]
compound = "CCN(C)/C=N/c1cc(C)c(CCc2ccccc2F)cc1C"
reading = 2.23


----------
- Assay Overview: logP by HPLC on reversed-phase column (EEC Directive 79/831 Annex V.A8)
- Type: physicochemical
- Recorded Conditions: HPLC, C18, 40° C., 0.1% aqueous formic acid and acetonitrile
Recorded Endpoint: log P

[[record]]
compound = "Cc1cc(OCc2ccccc2OC(F)F)c(C)cc1N=CN1CCCCC1 [Compound 127]"
reading = 2.13

[[record]]
compound = "CON=Cc1ccc(COc2cc(C)c(N=CN3CCCCC3)cc2C)cc1 [Compound 103]"
reading = 2.21

[[record]]
compound = "Cc1cc(OCc2ccc(C(F)(F)F)cc2)c(C)cc1N=CN1CCCCC1 [Compound 126]"
reading = 2.58

[[record]]
compound = "Cc1cc(OC(C)c2ccc(F)cc2)c(C)cc1N=CN1CCCCC1 (racemic) [Compound 93]"
reading = 2.18

[[record]]
compound = "CCN(C)C=Nc1cc(C)c(OCc2ccc(C(F)(F)F)cc2Cl)cc1C [Compound 25]"
reading = 2.47

[[record]]
compound = "Cc1cc(OCc2ccc(Cl)cc2C(F)(F)F)c(C)cc1N=CN1CCCCC1 [Compound 116]"
reading = 2.55

[[record]]
compound = "CCN(C)C=Nc1cc(C)c(OCc2cc(OC)c(OC)cc2Cl)cc1C [Compound 63]"
reading = 1.99

[[record]]
compound = "CCN(C)C=Nc1cc(C)c(OCc2ccc(Cl)cc2C(F)(F)F)cc1C [Compound 18]"
reading = 2.52

[[record]]
compound = "CCN(C)C=Nc1cc(C)c(CCc2ccc(Cl)cc2)cc1C [Compound 40]"
reading = 2.27

[[record]]
compound = "CCN(C)C=Nc1cc(C)c(CCc2ccccc2C)cc1C [Compound 38]"
reading = 2.38

[[record]]
compound = "CCN(C)C=Nc1cc(C)c(OCc2ccc(C(C)(C)C)cc2)cc1C [Compound 8]"
reading = 2.67

[[record]]
compound = "Cc1cc(OC(C)c2ccc(Cl)cc2)c(C)cc1N=CN1CCCCC1 (racemic) [Compound 132]"
reading = 2.36

[[record]]
compound = "CCN(C)C=Nc1cc(C)c(OCc2cc(C)cc(C)c2)cc1C [Compound 60]"
reading = 2.26

[[record]]
compound = "Cc1ccc(COc2cc(C)c(N=CN3CCCCC3)cc2C)cc1Cl [Compound 117]"
reading = 2.39

[[record]]
compound = "Cc1cc(OCc2cccc(C(F)(F)F)c2)c(C)cc1N=CN1CCCCC1 [Compound 96]"
reading = 2.29

[[record]]
compound = "CCN(C)C=Nc1cc(C)c(OCc2cccc(I)c2)cc1C [Compound 85]"
reading = 2.42

[[record]]
compound = "CCN(C)C=Nc1cc(C)c(OCc2ccccc2SC(F)(F)F)cc1C [Compound 68]"
reading = 2.36

[[record]]
compound = "Cc1cc(OC(C)c2ccccc2Cl)c(C)cc1N=CN1CCCCC1 (racemic) [Compound 130]"
reading = 2.36

[[record]]
compound = "CCN(C)C=Nc1cc(C)c(OCc2cccc(F)c2)cc1C [Compound 80]"
reading = 1.99

[[record]]
compound = "CCN(C)C=Nc1cc(C)c(OCc2cccc(C)c2C)cc1C [Compound 89]"
reading = 2.29

[[record]]
compound = "CCN(C)C=Nc1cc(C)c(OCc2ccccc2F)cc1C [Compound 11]"
reading = 1.94

[[record]]
compound = "CCN(C)C=Nc1cc(C)c(OCc2cccc(C)c2Cl)cc1C [Compound 71]"
reading = 2.29

[[record]]
compound = "CCN(C)C=Nc1cc(C)c(OCc2ccc(Oc3ccc(F)cc3)cc2)cc1C [Compound 52]"
reading = 2.8

[[record]]
compound = "CCN(C)C=Nc1cc(C)c(OCc2ccc(C(=O)OC)cc2)cc1C [Compound 53]"
reading = 1.9

[[record]]
compound = "CCN(C)C=Nc1cc(C)c(OCc2cccc(C=NOC)c2)cc1C [Compound 12]"
reading = 2.07

[[record]]
compound = "CCN(C)C=Nc1cc(C)c(OCc2ccc(F)c(OC)c2)cc1C [Compound 22]"
reading = 1.92

[[record]]
compound = "CCN(C)C=Nc1cc(C)c(OCc2ccc(Cl)cc2)cc1C [Compound 1]"
reading = 2.14

[[record]]
compound = "Cc1cc(OCc2cc3c(cc2Cl)OCO3)c(C)cc1N=CN1CCCCC1 [Compound 92]"
reading = 2.16

[[record]]
compound = "Cc1cc(OCc2ccc(Cl)c(Cl)c2)c(C)cc1N=CN1CCCCC1 [Compound 107]"
reading = 2.45

[[record]]
compound = "Cc1cc(OCc2ccc(C(C)(C)C)cc2)c(C)cc1N=CN1CCCCC1 [Compound 95]"
reading = 2.64

[[record]]
compound = "Cc1cc(OCc2cccc(C#N)c2)c(C)cc1N=CN1CCCCC1 [Compound 120]"
reading = 1.9

[[record]]
compound = "CCN(C)C=Nc1cc(C)c(CCc2ccc(C(F)(F)F)cc2)cc1C [Compound 46]"
reading = 2.45

[[record]]
compound = "CCN(C)C=Nc1cc(C)c(OC(C)c2ccc(F)cc2)cc1C (centres unmarked) [Compound 6]"
reading = 2.08

[[record]]
compound = "CCN(C)C=Nc1cc(C)c(OCc2ccccc2Br)cc1C [Compound 67]"
reading = 2.13

[[record]]
compound = "CCN(C)C=Nc1cc(C)c(CCc2cccc(Cl)c2)cc1C [Compound 36]"
reading = 2.2

[[record]]
compound = "Cc1cc(OCc2ccc(SC(F)(F)F)cc2)c(C)cc1N=CN1CCCCC1 [Compound 115]"
reading = 2.55

[[record]]
compound = "CCN(C)C=Nc1cc(C)c(OCc2ccccc2C#N)cc1C [Compound 58]"
reading = 1.78

[[record]]
compound = "Cc1ccc(COc2cc(C)c(N=CN3CCCCC3)cc2C)cc1 [Compound 124]"
reading = 2.23

